assayedSystem: T1, bacterially produced human IL-6 (human, UniProt P05231 30-212)
T1 construct: also called bactIL-6; prokaryotic IL-6
assay: SPR; purified Fab over biotinylated IL-6 on streptavidin chip
measuredParameter: kon

Please review the entries below; each comes with its answer.
Fab 18C7 (Fab, V domains shown, Fab; also called 18C7 (090-423)) VH: EVQLVESGPGLVKPSQTLSLTCTVSGGSITASFDAWSWIRQPPGKGLEWMGVIAYDGSTYYSPSLKSRTSISRDTSKNQFSLQLSSVTPEDTAVYYCARKSSWLIGYGMDYWGKGTLVTVSS VL: QAGLTQPSALSVTLGQTAKITCQGGSLGSSYAHWYQQKPGQAPVLVIYDDDSRPSGIPERFSGSSSGGRATLTISGAQAEDEGDYYCQSADSSGNAAVFGGGTHLTVLG
105000 M⁻¹ s⁻¹
Fab 28C6 (Fab, V domains shown, Fab) VH: QVQLVESGGGLVQPGGSLRLSCAASGFTFSNYYMTWVRQAPGKGLEWVSSIYSFSGDTAYADSVKGRFTISRDNAKNTLYLQMNKLKSEDTAVYYCTRDLGGVVVTANGYDYWGQGTQVTVSS VL: DIVMTQTPSSLSASLGDRVTITCQASQSISTELSWYQQKPGQTPKLLIYGASRLQTGVPARFSGSGSGTSFTLTISGLEAEDLATYYCLQDYSWPYSFGSGTRL
101000 M⁻¹ s⁻¹
Fab 29B11 (Fab, V domains shown, Fab) VH: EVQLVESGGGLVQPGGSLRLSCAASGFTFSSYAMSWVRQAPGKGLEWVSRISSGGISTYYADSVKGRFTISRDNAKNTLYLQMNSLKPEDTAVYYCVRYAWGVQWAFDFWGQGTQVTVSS VL: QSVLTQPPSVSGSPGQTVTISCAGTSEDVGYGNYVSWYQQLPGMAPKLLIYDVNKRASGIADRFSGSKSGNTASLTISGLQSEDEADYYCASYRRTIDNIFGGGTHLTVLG
130000 M⁻¹ s⁻¹

// moving on: another record for kon
In: In one line, give reported kon of the entry Fab 24C9 (Fab, V domains shown, Fab) VH: QVQLVESGGGLVQPGGSLRLSCAASGFTFSSYRMYWVRQPPGKGLEWVSAISAGGGSTYYGDSVKGRFTISRDNAKNTVYLQMNSLKPEDTALYYCKKSTWADGESDYWGQGTQVTVSS VL: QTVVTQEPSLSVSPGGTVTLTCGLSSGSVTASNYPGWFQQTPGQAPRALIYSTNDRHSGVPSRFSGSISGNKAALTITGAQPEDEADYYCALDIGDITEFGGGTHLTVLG .
Out: 133000 M⁻¹ s⁻¹
